The origin of these recorded values is patent US7582786B2.

- METHOD_SUMMARY: Catalase activity, conversion of H2O2 to oxygen, polarographic oxygen electrode (Example 2)
- Format: biochemical
- TEST_CONTEXT: relative to C7 (C7 = 100)
MEASURED_QUANTITY: Catalase rate
The answer should be written as a number, with no unit following it.

INSERT INTO measurements (line_notation, measured_quantity, obs_value) VALUES
  ('COc1cc(OC)c2c(c1)[O][Mn]([O]C(C)=O)[O]c1cc(OC)cc(OC)c1C=NCCN=C2', 'Catalase rate', 25),
  ('COc1ccc2c(c1)C=NCCN=Cc1cc(OC)ccc1[O][Mn]([Cl])[O]2', 'Catalase rate', 120),
  ('CC(=O)[O][Mn]1[O]c2ccccc2C=NCCN=Cc2ccccc2[O]1', 'Catalase rate', 92);

Please turn your attention to the following entry.
Field Catalase rate (entry `CC(=O)[O][Mn]1[O]c2ccc3ccccc3c2C=Nc2ccccc2N=Cc2c(ccc3ccccc23)[O]1` ) reads 42
